molecular target: KRAS G12C (Homo sapiens (Human), UniProt P01116+P62937, G12C); assay: Ras-Raf disruption/FRET/MOA assay (BRAF RBD, Cyclophilin A); type: biochemical; conditions: read-out: KRAS G12C FRET IC50
Sequence (P01116-2 other isoform, or with tags, fused parts or gaps G12C): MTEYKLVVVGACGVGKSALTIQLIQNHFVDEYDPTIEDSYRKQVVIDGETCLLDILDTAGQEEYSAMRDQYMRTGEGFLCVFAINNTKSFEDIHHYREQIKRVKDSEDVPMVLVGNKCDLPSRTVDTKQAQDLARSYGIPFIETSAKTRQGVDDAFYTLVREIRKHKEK
Sequence (P62937 whole entry): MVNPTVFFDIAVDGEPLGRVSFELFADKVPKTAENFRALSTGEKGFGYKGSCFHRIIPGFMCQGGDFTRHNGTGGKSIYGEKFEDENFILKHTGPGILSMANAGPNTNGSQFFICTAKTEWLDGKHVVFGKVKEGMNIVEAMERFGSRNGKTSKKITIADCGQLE
pIC50: −log10 of the molar value.
This listing pairs molecules with measured pIC50.

Use these answered entries as a reference point.
# molecule, tested_target, result
records = [
    ("CCn1c(-c2cnccc2COC)c2c3cc(ccc31)-c1cc(O)cc(c1)C[C@H](NC(=O)C(C)C1CCOCC1)C(=O)N1CCC[C@H](N1)C(=O)OCC(C)(C)C2 (some centres unmarked)", "KRAS G12C (Homo sapiens (Human), UniProt P01116+P62937, G12C)", "5.00 to 6.00"),
    ("CCn1c(-c2cccnc2[C@H](C)OC)c2c3cc(ccc31)-c1csc(n1)C[C@H](NC(=O)[C@H](C(C)C)N(C)C(=O)N1CC3(CN(C)C3)C1)C(=O)N1CCC[C@H](N1)C(=O)OCC(C)(C)C2", "KRAS G12C (Homo sapiens (Human), UniProt P01116+P62937, G12C)", "6.00 to 7.00"),
    ("CCn1c(-c2ccccc2[C@H](C)OC)c2c3cc(ccc31)-c1csc(n1)C[C@H](NC(=O)[C@H](C(C)C)N(C)C(=O)[C@H]1CCN(C(=O)OC3COC3)C1)C(=O)N1CCC[C@H](N1)C(=O)OCC(C)(C)C2", "KRAS G12C (Homo sapiens (Human), UniProt P01116+P62937, G12C)", "5.00 to 6.00"),
    ("CCn1c(-c2cccnc2[C@H](C)OC)c2c3cc(ccc31)-c1cc(O)cc(c1)C[C@H](NC(=O)[C@H](C(C)C)N(C)C(=O)N1CC(OC)C1)C(=O)N1CCC[C@H](N1)C(=O)OCC(C)(C)C2", "KRAS G12C (Homo sapiens (Human), UniProt P01116+P62937, G12C)", "7.00 to 8.00"),
]

Given item "CCn1c(-c2cccnc2[C@H](C)OC)c2c3cc(ccc31)-c1csc(n1)C[C@H](NC(=O)C1(F)CCC1)C(=O)N1CCC[C@H](N1)C(=O)OCC(C)(C)C2" , the value recorded as its pIC50 is 6.00 to 7.00

====

target: KRAS G12S (Homo sapiens (Human), UniProt P01116+P62937, G12S); test: Ras-Raf disruption/FRET/MOA assay (BRAF RBD, Cyclophilin A); type: biochemical; conditions: read-out: KRAS G12S FRET IC50
Sequence (P01116 other isoform, or with tags, fused parts or gaps G12S): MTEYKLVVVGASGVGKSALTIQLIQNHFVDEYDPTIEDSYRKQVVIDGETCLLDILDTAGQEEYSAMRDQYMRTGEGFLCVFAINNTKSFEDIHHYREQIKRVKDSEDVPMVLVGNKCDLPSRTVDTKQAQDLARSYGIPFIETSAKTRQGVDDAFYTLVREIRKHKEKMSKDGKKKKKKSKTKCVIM
Sequence (P62937 whole entry): as the sequence (P62937 whole entry) above
recorded_metric: IC50

Some compounds with known IC50 results, for comparison:
# compound, IC50
measured = [
    ("CCn1c(-c2cccnc2[C@H](C)OC)c2c3cc(ccc31)-c1cc(O)cc(c1)C[C@H](NC(=O)[C@H](C(C)C)N(C)C(=O)[C@H]1CCN(C(=O)C(C)(C)NC)C1)C(=O)N1CCC[C@H](N1)C(=O)OCC(C)(C)C2", "10 to 100 nM"),
    ("CCn1c(-c2cccnc2[C@H](C)OC)c2c3cc(ccc31)-c1cc(O)cc(c1)C[C@H](NC(=O)[C@H](C(C)C)N(C)C(=O)C1Cc3nccn3C1)C(=O)N1CCC[C@H](N1)C(=O)OCC(C)(C)C2 (stereo partly drawn)", "10 to 100 nM"),
    ("CCn1c(-c2cccnc2[C@H](C)OC)c2c3cc(ccc31)-c1csc(n1)C[C@H](NC(=O)[C@H](C(C)C)N(C)C(=O)[C@H]1CCN(C(=O)CN(C)C)C1)C(=O)N1CCC[C@H](N1)C(=O)OCC(C)(C)C2", "1000 to 10000 nM"),
    ("CCn1c(-c2cccnc2[C@H](C)OC)c2c3cc(ccc31)-c1cc(O)cc(c1)C[C@H](NC(=O)[C@H](C(C)C)N(C)C(=O)[C@H]1CNC[C@@H]1C)C(=O)N1CCC[C@H](N1)C(=O)OCC(C)(C)C2", "100 to 1000 nM"),
    ("CCn1c(-c2cccnc2[C@H](C)OC)c2c3cc(ccc31)-c1cccc(c1)C[C@H](NC(=O)[C@H](C(C)C)N(C)C(=O)C1COC1)C(=O)N1CCC[C@H](N1)C(=O)OCC(C)(C)C2", "1000 to 10000 nM"),
    ("CCn1c(-c2cccnc2[C@H](C)OC)c2c3cc(ccc31)-c1csc(n1)C[C@H](NC(=O)[C@H](C(C)C)N(C)C(=O)N1CCO[C@H](c3ccccc3)C1)C(=O)N1CCC[C@H](N1)C(=O)OCC(C)(C)C2", "100 to 1000 nM"),
]

Just so you know, measured IC50 for "CCn1c(-c2cccnc2[C@H](C)OC)c2c3cc(ccc31)-c1cc(O)cc(c1)C[C@H](NC(=O)[C@H](C(C)C)N(C)C(=O)[C@H]1CCN(C(=O)[C@@]3(C)CCCN3C)C1)C(=O)N1CCC[C@H](N1)C(=O)OCC(C)(C)C2" came out at 10 to 100 nM

Lookup result for "CCn1c(-c2cccnc2[C@H](C)OC)c2c3cc(ccc31)-c1cccc(c1)C[C@H](NC(=O)[C@H](C(C)C)N(C)C(C)=O)C(=O)N1CCC[C@H](N1)C(=O)OCC(C)(C)C2" ; measured IC50: 1000 to 10000 nM

Entry CCn1c(-c2cccnc2[C@H](C)OC)c2c3cc(ccc31)-c1cc(O)cc(c1)C[C@H](NC(=O)[C@H](C(C)C)N(C)C(=O)C1CC13CNC3)C(=O)N1CCC[C@H](N1)C(=O)OCC(C)(C)C2 (stereo partly drawn) — recorded IC50 = 10 to 100 nM

Ref: patent US20250195521A1
